Measured On: T1, cynomolgus monkey transferrin receptor 1 (cynomolgus monkey (Macaca fascicularis), UniProt Q5RDH6 89-760 (Pongo abelii entry), limits assumed)
T1 construct: also called cyTfR1; Cyno TfR1
T1 chain: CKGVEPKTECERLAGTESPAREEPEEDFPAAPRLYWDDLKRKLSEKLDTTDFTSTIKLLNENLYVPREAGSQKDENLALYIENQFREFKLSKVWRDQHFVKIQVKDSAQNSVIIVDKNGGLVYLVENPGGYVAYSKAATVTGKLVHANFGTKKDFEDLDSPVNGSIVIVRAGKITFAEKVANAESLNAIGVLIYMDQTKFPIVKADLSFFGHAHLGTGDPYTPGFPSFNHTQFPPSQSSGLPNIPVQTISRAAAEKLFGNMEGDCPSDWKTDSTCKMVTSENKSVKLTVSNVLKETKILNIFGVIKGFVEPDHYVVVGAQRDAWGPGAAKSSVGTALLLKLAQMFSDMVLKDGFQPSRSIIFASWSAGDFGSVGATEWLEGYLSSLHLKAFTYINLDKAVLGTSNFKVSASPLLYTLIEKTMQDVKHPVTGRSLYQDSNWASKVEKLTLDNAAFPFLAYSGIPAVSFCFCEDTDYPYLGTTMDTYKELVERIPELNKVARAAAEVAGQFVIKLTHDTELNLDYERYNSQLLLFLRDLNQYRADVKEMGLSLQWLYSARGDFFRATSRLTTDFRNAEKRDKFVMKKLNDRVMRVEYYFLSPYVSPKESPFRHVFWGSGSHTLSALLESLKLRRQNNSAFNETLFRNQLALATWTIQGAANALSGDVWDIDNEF
Assay Overview: average KD, antibody alone; method not given
# if measured Kd < 2 nM: satisfied  # else: not satisfied

Examples with answers:
1. 4-C5 (antibody, V domains shown, Tested as a mouse monoclonal IgG; also called 4-C05) VH: QVQLQQSGAELMKPGASVKISCKATGYTFSNYWIEWVKQRPGHGLEWIGEILPGSGSTNYNENFKGKATFTADTSSNTAYMQLSSLTSEDSAVYYCARRGAYGNFHYWGQGTTLTVSS VL: EIVLTQSPALMAASPGEKVTITCSVSSSISSSNLHWYQQKSETSPKPWIYGTSNLASGVPVRFSGSGSGTSYSLTISSMEAEDAATYYCQQWRSYPYTFGGGTKLEIK :: not satisfied
2. 8-O17 (antibody, V domains shown, Tested as a mouse monoclonal IgG) VH: QVQLKESGPGLVAPSQSLSITCTVSGFSLTNYGVHWVRQPPGKGLEWLVVIWNDGSATYNSALESRLSISKDNSKSQVFLKMNSLQTDDTAMYYCARHESSNPFAYWGQGTLVTVSA VL: DILLTQSPAILSVSPGERVSFSCRASQSIGTSIHWYQQRTNGSPRLLIKSASESIAGIPSRFSGSGSGTDFTLSINSVESEDIADYYCQQNNRWPYTFGGGTKLEIK :: satisfied
3. 3-A4 (antibody, V domains shown, Tested as a mouse monoclonal IgG; also called 3-A04) VH: EVQLQQSGAELVRPGASVKLSCTASGFNIKDDYMYWVKQRPEQGLEWIGWIDPENGDTEYASKFQDKATVTADTSSNTAYLQLSSLTSEDTAVYYCTLWLRRGLDYWGQGTSVTVSS VL: DIVMTQAAPSVPVTPGESVSISCRSSKSLLHSNGYTYLFWFLQRPGQSPQLLIYRMSNLASGVPDRFSGSGSGTAFTLRISRVEAEDVGVYYCMQHLEYPFTFGGGTKLEIK :: not satisfied
4. 3-E5 (antibody, V domains shown, Tested as a mouse monoclonal IgG; also called 3-E05) VH: EIQMKQSGAELVKPGASVKISCKASGYSFTGYNMNWVKQSHGKSLEWIGNINPYYGSTGYNQKFKGKATLTVDKSSSTAYMQLNSLTSEDSAVYYCARGDYGYDEGTWFAYWGQGTLVTVSA VL: DIVMSQSPSSLAVSAGEKVTMSCKSSQSLLNSRTRKNYLAWYQQKPEQSPKLLIYWASTRESGVPDRFTGSGSGTDFTLTISSVQAEDLAVYYCKQSYNLPFTFGSGTKLEIK :: satisfied

Prompt: Strictly below 2 nM: is that where Kd of 9-D4 (antibody, V domains shown, Tested as a mouse monoclonal IgG; also called 9-D04) VH: QVQLQQSGTELARPGASVKLSCKASGFTFTDYGINWVKQRTGQGLEWIGEIYPSSGNSYYNEKFKAKATLTADKSSSTAYMELRSLTSEDSAVYFCARSTYYGSPIDYWGQGTTLTVSS VL: DIVMTQSHKFMSTPVGDRVSITCKASQDVDTTVAWYQQKPGQSPKLLIYWASTRQIGVPDRFTGSGSGTDFTLTISNVQSEDLADYFCQQYSTYPLTFGGGTKLEIK sits?
Response: satisfied

Hello, the source for this data is patent US20230144436A1, in case you need it.
